study_system: T1, C-terminal domain of Bim1 (residues 194–344) (S. cerevisiae, UniProt P40013 194-344)
T1 sequence (looked up): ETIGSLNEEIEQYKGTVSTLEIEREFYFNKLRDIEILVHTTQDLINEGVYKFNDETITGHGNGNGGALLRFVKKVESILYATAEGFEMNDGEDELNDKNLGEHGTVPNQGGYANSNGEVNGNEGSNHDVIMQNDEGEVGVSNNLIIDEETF
protocol_details: ITC
assay_metric: pKd
Worth noting: pKd values are minus log10 of concentrations stated in mol/L.

Using the record for VFQTPPTKITTPNSQVWVPSTRRRTRLRPPTPLSQLLSPREGRLDKTPTY (domain or fragment) [Trx-Kar9-Site3] , state its measured pKd.
6.25
